- MEASURED_TARGET: P-gp (Homo sapiens, UniProt P08183)
- Sequence (P08183 whole entry): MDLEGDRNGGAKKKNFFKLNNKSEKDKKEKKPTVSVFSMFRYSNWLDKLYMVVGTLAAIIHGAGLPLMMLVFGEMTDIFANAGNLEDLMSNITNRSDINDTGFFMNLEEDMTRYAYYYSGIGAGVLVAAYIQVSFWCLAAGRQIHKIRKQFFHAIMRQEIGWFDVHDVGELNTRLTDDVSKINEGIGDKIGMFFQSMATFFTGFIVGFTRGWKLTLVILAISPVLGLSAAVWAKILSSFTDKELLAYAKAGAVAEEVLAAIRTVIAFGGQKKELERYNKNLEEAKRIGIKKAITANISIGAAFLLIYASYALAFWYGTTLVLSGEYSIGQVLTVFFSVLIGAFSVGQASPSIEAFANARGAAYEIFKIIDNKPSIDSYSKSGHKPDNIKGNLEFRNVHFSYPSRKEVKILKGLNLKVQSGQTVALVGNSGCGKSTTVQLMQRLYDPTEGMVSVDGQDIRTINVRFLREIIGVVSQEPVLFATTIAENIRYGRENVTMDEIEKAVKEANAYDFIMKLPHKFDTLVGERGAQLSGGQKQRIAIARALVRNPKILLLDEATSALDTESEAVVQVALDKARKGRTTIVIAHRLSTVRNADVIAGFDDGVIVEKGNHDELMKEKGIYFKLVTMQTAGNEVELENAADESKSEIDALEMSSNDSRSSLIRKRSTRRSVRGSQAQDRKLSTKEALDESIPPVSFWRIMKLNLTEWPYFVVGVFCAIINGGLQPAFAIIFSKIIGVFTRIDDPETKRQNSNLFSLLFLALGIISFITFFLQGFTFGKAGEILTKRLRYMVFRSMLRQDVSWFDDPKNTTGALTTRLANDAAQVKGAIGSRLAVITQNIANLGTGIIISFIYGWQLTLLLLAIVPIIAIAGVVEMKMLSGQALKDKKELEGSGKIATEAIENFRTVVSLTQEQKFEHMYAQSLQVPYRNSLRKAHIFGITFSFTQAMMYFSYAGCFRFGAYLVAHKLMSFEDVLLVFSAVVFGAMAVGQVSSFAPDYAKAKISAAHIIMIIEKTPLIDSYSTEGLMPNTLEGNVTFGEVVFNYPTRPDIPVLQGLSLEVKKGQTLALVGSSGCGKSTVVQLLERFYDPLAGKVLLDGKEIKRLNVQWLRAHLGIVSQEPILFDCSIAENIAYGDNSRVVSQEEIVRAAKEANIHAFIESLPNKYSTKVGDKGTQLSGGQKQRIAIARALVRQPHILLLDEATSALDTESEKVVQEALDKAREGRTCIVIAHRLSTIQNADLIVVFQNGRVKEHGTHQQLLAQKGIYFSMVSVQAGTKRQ
OBSERVED_PROPERTY: pIC50
Just the number, please; pIC50 means minus log10 of the concentration in mol/L.

q: Report pIC50 for CCCN1CC(Oc2ccc([C@@H]3c4[nH]c5ccccc5c4C[C@@H](C)N3CC(C)(C)F)cc2)C1 tested on P-gp (Homo sapiens, UniProt P08183).
a: 5.40

----------
- MEASURED_TARGET: ERα (Homo sapiens, UniProt P03372)
- Sequence (P03372 1-595): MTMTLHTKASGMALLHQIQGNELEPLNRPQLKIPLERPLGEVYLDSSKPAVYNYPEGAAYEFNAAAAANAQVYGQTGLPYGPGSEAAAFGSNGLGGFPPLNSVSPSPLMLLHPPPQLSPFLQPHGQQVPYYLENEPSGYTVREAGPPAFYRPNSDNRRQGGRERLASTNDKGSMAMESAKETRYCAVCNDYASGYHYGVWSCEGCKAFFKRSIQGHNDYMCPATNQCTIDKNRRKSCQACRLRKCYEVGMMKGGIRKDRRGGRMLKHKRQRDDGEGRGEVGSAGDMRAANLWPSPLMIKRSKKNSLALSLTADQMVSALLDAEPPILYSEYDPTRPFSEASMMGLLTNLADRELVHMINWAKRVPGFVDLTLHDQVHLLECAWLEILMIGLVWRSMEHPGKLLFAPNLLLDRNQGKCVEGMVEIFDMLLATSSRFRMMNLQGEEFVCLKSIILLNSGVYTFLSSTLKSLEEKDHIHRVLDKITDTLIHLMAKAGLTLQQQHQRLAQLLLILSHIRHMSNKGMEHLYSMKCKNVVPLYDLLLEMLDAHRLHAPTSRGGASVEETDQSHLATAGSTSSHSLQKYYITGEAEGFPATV
- ASSAY_PROTOCOL: Alkaline phosphatase
- Type: cell-based
- CONDITION_NOTES: Ishikawa, read-out: AP % E max, Ishikawa (ECC-1) cells, agonist mode, 72 h
OBSERVED_PROPERTY: Emax (%)
Provide the reading as a plain figure in %.

Previously resolved entries follow.
1) CCCN1CC(Cc2ccc([C@@H]3c4[nH]c5ccccc5c4C[C@@H](C)N3CC(C)(C)F)cc2F)C1 7.4
2) CCCN1CC(Oc2ccc([C@@H]3c4[nH]c5ccccc5c4C[C@@H](C)N3CC(F)(F)CO)cc2)C1 0
3) CCN1CC(Oc2ccc([C@@H]3c4[nH]c5ccccc5c4C[C@@H](C)N3CC(C)(C)F)cc2)C1 4.6
4) C[C@@H]1Cc2c([nH]c3ccccc23)[C@@H](c2ccc(CCCN3CC(CF)C3)c(F)c2)N1CC(C)(C)F 22
5) CCCN1CC(Oc2ccc([C@@H]3c4[nH]c5ccccc5c4C[C@@H](C)N3C[C@H](C)CO)cc2)C1 0.7

q: What Emax value was documented for this compound, CCCCCN1CC(Oc2ccc([C@@H]3c4[nH]c5ccccc5c4C[C@@H](C)N3CC(C)(C)F)cc2)C1 ?
a: 93
